Form: system (SYK kinase (Homo sapiens)), quantity (IC50), values below.

Q: Lab note: need IC50 for CCc1ccnc(Nc2cccc(-c3cnc(N4CCNC(=O)C4C)o3)c2)n1 (centres unmarked) [Compound 004] on SYK kinase (Homo sapiens), anyone have it?
Ans: ≤ 100 nM

Q: Please give the result for Cc1ccnc(Nc2cccc(-c3cnc(N4CCNC(=O)[C@H]4C(C)C)o3)c2)n1 [Compound 040] too.
Ans: ≤ 100 nM

Q: Please give the result for Cc1ccnc(Nc2cccc(-c3cnc(N4CCNC(=O)[C@@H]4C(C)C)o3)c2)n1 [Compound 039] too.
Ans: 100 to 1000 nM

Q: Please give the result for CC1C(=O)NCCN1c1ncc(-c2cccc(Nc3nccc(-c4cccs4)n3)c2)o1 (centres unmarked) [Compound 010] too.
Ans: ≤ 100 nM

Q: Please give the result for CC1C(=O)NCCN1c1ncc(-c2cccc(Nc3nccc(N4CCOCC4)n3)c2)o1 (centres unmarked) [Compound 027] too.
Ans: 100 to 1000 nM

Q: Please give the result for CCCc1cnc(Nc2cccc(-c3cnc(N4CCNC(=O)C4C)o3)c2)nc1 (centres unmarked) [Compound 006] too.
Ans: 1000 to 10000 nM

Q: Please give the result for Cc1ccnc(Nc2cc(CN3CCOCC3)cc(-c3cnc(N4CCNC(=O)C4C)o3)c2)n1 (centres unmarked) [Compound 014] too.
Ans: 100 to 1000 nM

Q: Please give the result for Cc1ccnc(Nc2cc(CN3CCCC3)cc(-c3cnc(N4CCNC(=O)C4(C)C)o3)c2)n1 [Compound 045] too.
Ans: 100 to 1000 nM

Q: Please give the result for Cc1ccnc(Nc2cccc(-c3cnc(N4CCNC(=O)[C@@H]4C)o3)c2)n1 [Compound 019] too.
Ans: ≤ 100 nM

Q: Please give the result for Cc1ccnc(Nc2cc(CN3CCOCC3)cc(-c3cnc(N4CCNC(=O)C4(C)C)o3)c2)n1 [Compound 005] too.
Ans: ≤ 100 nM

Q: Please give the result for Cc1ccnc(Nc2cc(CN(C)C)cc(-c3cnc(N4CCNC(=O)C4(C)C)o3)c2)n1 [Compound 044] too.
Ans: 100 to 1000 nM

Q: Please give the result for Cc1ccnc(Nc2cccc(-c3cnc(N4CCNC(=O)C4C)o3)c2)n1 (centres unmarked) [Compound 001] too.
Ans: ≤ 100 nM

Q: Please give the result for CN1CCN(c2ccnc(Nc3cccc(-c4cnc(N5CCNC(=O)C5(C)C)o4)c3)n2)CC1 [Compound 031] too.
Ans: 1000 to 10000 nM

Q: Please give the result for CC1C(=O)NCCN1c1ncc(-c2cc(CN3CCOCC3)cc(Nc3nccc(C(F)(F)F)n3)c2)o1 (centres unmarked) [Compound 015] too.
Ans: ≤ 100 nM

Q: Please give the result for CC1(C)C(=O)NCCN1c1ncc(-c2cccc(Nc3nccc(N4CCCC4)n3)c2)o1 [Compound 032] too.
Ans: 1000 to 10000 nM

Q: Please give the result for CC(C)C1C(=O)NCCN1c1ncc(-c2cccc(Nc3nccc(N4CCCC4)n3)c2)o1 (centres unmarked) [Compound 034] too.
Ans: 1000 to 10000 nM

Q: Please give the result for CC(C)C1C(=O)NCCN1c1ncc(-c2cccc(Nc3nccc(N4CCOCC4)n3)c2)o1 (centres unmarked) [Compound 033] too.
Ans: 1000 to 10000 nM
